Task for the reader: assign each of the following binders its reported glycan array binding signal (z-score).
# TARGET_UNDER_TEST: Neu5Ac(a2-3)Gal(b1-3)GlcNAc(b1-2)Man(a1-3)[Neu5Ac(a2-3)Gal(b1-3)GlcNAc(b1-2)Man(a1-6)]Man(b1-4)GlcNAc(b1-4)GlcNAc
# ASSAY_SUMMARY: glycan array binding signal (z-score within array); higher = stronger binding
# ASSAY_SETUP: glycan notation: IUPAC condensed, linker removed
The sample as a whole holds a higher share of the strongest signals than the screen did.
Quick one: just the number, no unit, thanks!

stdin: For the binder Epa3to2 (Candida glabrata) (protein) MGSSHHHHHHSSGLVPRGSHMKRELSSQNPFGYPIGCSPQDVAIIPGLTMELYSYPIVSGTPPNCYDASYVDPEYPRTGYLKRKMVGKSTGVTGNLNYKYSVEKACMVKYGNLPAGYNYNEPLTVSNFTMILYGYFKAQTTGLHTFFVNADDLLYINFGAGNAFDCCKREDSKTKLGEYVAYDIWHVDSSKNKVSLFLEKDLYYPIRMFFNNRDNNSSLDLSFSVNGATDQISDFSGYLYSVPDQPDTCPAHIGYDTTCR , what glycan array binding signal (z-score) is on record?
stdout: -0.658

stdin: For the binder Epa1 (Candida glabrata) (protein) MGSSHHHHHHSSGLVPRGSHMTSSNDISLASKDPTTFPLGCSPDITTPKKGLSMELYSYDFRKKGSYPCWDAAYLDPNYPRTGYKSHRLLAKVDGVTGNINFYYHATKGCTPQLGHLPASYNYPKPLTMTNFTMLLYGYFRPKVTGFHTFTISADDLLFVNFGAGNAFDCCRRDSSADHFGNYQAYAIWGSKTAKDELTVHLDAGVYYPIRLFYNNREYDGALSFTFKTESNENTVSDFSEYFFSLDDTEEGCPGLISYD , what glycan array binding signal (z-score) is on record?
stdout: -0.325

stdin: For the binder PfulAvr4 (Pseudocercospora fuligena) (protein) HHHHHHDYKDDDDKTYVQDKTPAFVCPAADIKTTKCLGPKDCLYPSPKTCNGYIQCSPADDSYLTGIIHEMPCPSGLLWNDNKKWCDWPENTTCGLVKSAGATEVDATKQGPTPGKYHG , what glycan array binding signal (z-score) is on record?
stdout: 1.27

stdin: For the binder SAOUHSC 02783 (Staphylococcus aureus), Q5HD69 (protein) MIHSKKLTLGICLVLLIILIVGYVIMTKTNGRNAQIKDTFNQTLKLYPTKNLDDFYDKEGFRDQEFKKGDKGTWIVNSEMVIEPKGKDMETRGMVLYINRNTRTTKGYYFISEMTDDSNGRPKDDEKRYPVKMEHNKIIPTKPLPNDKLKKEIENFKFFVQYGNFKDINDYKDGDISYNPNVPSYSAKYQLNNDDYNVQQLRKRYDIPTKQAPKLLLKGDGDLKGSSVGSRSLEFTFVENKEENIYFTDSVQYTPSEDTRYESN , what glycan array binding signal (z-score) is on record?
stdout: 6.23

stdin: For the binder RBMC2 (Vibrio cholerae) (protein) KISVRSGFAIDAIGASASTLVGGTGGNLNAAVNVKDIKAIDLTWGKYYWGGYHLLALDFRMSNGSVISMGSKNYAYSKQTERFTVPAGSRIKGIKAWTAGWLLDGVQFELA , what glycan array binding signal (z-score) is on record?
stdout: -0.017

stdin: For the binder Pwp1 (Candida glabrata) (protein) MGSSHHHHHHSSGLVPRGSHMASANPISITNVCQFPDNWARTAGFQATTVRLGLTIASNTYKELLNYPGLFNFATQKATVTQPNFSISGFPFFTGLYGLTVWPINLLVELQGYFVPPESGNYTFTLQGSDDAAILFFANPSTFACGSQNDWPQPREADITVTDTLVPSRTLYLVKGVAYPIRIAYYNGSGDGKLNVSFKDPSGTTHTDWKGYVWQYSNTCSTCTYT , what glycan array binding signal (z-score) is on record?
stdout: 1.89

Source of measurements: the supplement of paper PMC8728848
